# Target System: Signal transducer and activator of transcription 3 (Homo sapiens) (UniProt P40763)
# Assay Comment: blockers of STAT3 signaling, concentration series – cell-based, dose response (AID 1399)
# Conditions: human cell STAT3 reporter inhibition
Let's look at some compounds and their measured IC50.

Compound: COc1ccc2nc3c(cc2c1)c(NC(=O)c1cccs1)nn3CC(C)C
IC50: 3.75 µM
//
Compound: CC1CCC2C(=O)N(c3ccccc3OC(=O)c3ccccc3)C(=O)C2C1 (configuration not stated)
IC50: 9.22 µM
//
Compound: CCOC(=O)c1oc2ccc(S(=O)(=O)Nc3ccc4c(c3)n(C)c(=O)n4C)cc2c1C
IC50: 5.04 µM
//
Compound: c1ccc(C(Cc2nc(-c3ccncc3)no2)c2ccccc2)cc1
IC50: 5.05 µM
//
Compound: O=C(NC1CC1)c1cc2c(s1)-c1ccccc1OC2
IC50: 3.83 µM
//
Compound: Cn1c(CN2CCCCC2)nc2cc(NC(=O)c3cccc(Br)c3)ccc21
IC50: 4.55 µM
//
Compound: CNC(=O)Oc1cccc(-c2cn3cc(Cl)ccc3n2)c1
IC50: 1.78 µM
//
Compound: O=C(Nc1cccc(O)c1)c1noc2c1CCc1ccccc1-2
IC50: 3.55 µM
//
Compound: Cc1csc(NC(=O)c2cc3c(s2)CCCC3)n1
IC50: 3.82 µM
//
Compound: COc1ccc(C)cc1-n1nnnc1SCn1nnc2ccccc2c1=O
IC50: 7.58 µM
//
Compound: Cc1ccc(S(=O)(=O)N(C)c2ccc(C(=O)N3CCN(Cc4ccc5c(c4)OCO5)CC3)cc2)cc1
IC50: 6.17 µM
//
Compound: CCCCCCCc1ccc(-c2ccc(O)cc2)nc1
IC50: 3.26 µM
//
Compound: COC(=O)c1nn(-c2ccc3c(c2)CCN3C(C)=O)cc1O
IC50: 1.29 µM
//
Compound: Nc1cc(-c2ccc(Br)cc2)nn1Cc1ccccc1
IC50: 4.05 µM
//
Compound: CN(C)S(=O)(=O)Oc1cccc(C(=O)Nc2ccc(Cl)cc2)c1
IC50: 5.23 µM
//
Compound: CSc1ccc(NC(=O)N2CCN(c3nc4ccccc4s3)CC2)cc1
IC50: 5.96 µM
//
Compound: COC(=O)c1cccc(NC(=O)CSc2nc3cccnc3n2C)c1
IC50: 5.35 µM
//
Compound: O=C(Nc1ccn(Cc2ccccc2F)n1)c1ccc(COc2ccccc2Cl)cc1
IC50: 5.12 µM
//
Compound: O=C(CSc1ccc2ccccc2c1)Nc1ccncc1
IC50: 7.66 µM
//
Compound: CN1/C(=C\C(=O)C[n+]2ccc(C(=O)c3ccccc3)cc2)C(C)(C)c2ccccc21
IC50: 5.22 µM
//
Compound: Cc1ccsc1/C=C1\CCc2ccccc2C1=O
IC50: 5.04 µM
//
Compound: CCOC(=O)c1ccc(NC(=O)c2ccc(CN3CCOCC3)cc2)cc1
IC50: 2.9 µM
//
Compound: C[C@H]1CCC[C@@H](O)CCC/C=C/c2cc(O)cc(O)c2C(=O)O1
IC50: 5.25 µM
//
Compound: O=C1c2ccc(Br)cc2C(=O)N1c1ccc(Cc2ccncc2)cc1
IC50: 5.65 µM
//
Compound: Cc1ccc(-n2ncc3c(SCc4cccnc4)ncnc32)c(C)c1
IC50: 5.76 µM
//
Compound: O=C(Nc1ccncc1)c1ccc2c(c1)C(=O)N(C1CCCCC1)C2=O
IC50: 2.42 µM
//
Compound: Clc1ccc(CSc2nnc(Cn3cnc4ccccc43)o2)cc1
IC50: 5.02 µM
//
Compound: CCOC(=O)c1sc2nc(CC(=O)OC)nc(NCc3ccc(Cl)cc3)c2c1C
IC50: 7.66 µM
//
Compound: Cc1nc2ccccc2cc1OCc1ccc(F)cc1
IC50: 3.47 µM
//
Compound: CN(C)S(=O)(=O)c1ccc(C(=O)Nc2nc(-c3cccs3)cs2)cc1
IC50: 8.64 µM
//
Compound: O=C(C1CCN(c2nc3ccc(Br)cc3s2)CC1)N1CCC2(CC1)OCCO2
IC50: 2.79 µM
//
Compound: O=C(Nc1ccn(Cc2ccccc2F)n1)c1ccc(COc2ccc(Br)cc2)cc1
IC50: 2.9 µM
//
Compound: O=C(COc1ccc2ccccc2c1)Nc1ccncc1
IC50: 6.11 µM
//
Compound: Cc1ccccc1OCCCCn1cnc2ccccc21
IC50: 5.73 µM
//
Compound: O=C1CCCN1c1ccc(S(=O)(=O)N2CCC(c3ccccc3)CC2)cc1
IC50: 4.5 µM
//
Compound: Cc1ccc(-c2cn3cc([N+](=O)[O-])ccc3n2)cc1
IC50: 4.09 µM
//
Compound: O=C(Nc1ccc(Cc2ccncc2)cc1)c1ccc(S(=O)(=O)N2CCOCC2)cc1
IC50: 4.31 µM
